# System: Fer (mouse)
# METHOD NOTES: phosphorylation enrichment, bacterial display (enrichment ratio); higher = better substrate or ligand; peptides without Tyr show the background;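 further: 11-residue human phosphosite peptides and single-mutation variants displayed on the E. coli surface, counted by deep sequencing, each peptide's frequency after selection divided by its frequency in the unselected input library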;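 further: frequency after pTyr selection over input frequency; kinase dosed for 20-30% of maximal phosphorylation in three min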
Values of phosphorylation enrichment greater than or equal to 0.7 map to y; values below map to n.

Is phosphorylation enrichment for GGSTYYIDTNA [ACTL6A_Y69_P66S] at or above 0.7?
n

Given the entry ELTSVYGSRAR [SENP1_Y349_D350G] , answer whether its phosphorylation enrichment meets or surpasses 0.7.
n

hey, is phosphorylation enrichment for this one >= 0.7? YKGKKYKPLDL [RPL35_Y78]
n

Entry PSDSGYSFETI [MAP1B_Y1921_YF] : is its phosphorylation enrichment no less than 0.7?
n

Evaluate SVVVHYEPPEV [TP53_Y220_P219H] : phosphorylation enrichment at minimum 0.7?
y

# check: phosphorylation enrichment of DSNPIYSQIWS [FCRL3_Y662] is greater than or equal to 0.7
y

====

# System: Fer (mouse)
# METHOD NOTES: phosphorylation enrichment, bacterial display (enrichment ratio); higher = better substrate or ligand; peptides without Tyr show the background
Exercise: state measured phosphorylation enrichment for each of the sequences provided.
# answer = number (no unit)

Which measured phosphorylation enrichment value corresponds to FPHVISARLWR [SMAD4_Y95_Y95S] ?
0.524

Need phosphorylation enrichment of GGTTLYPGIAD [ACTC1_Y308_M307L] , thanks.
0.431

# lookup: phosphorylation enrichment of QSSALYEDRFL [ASS1_Y83_YF]
10.1

Entry under review: MFNPFYGLFEF [NEDD4L_Y680_YF] . Reported phosphorylation enrichment?
5.44

Recorded phosphorylation enrichment for TSNNPYFRDQA [RPGRIP1_Y846_A841T] , please?
0.396

I would be grateful if you could share the reported phosphorylation enrichment for MGIMLYGVDSR [PKD1_Y3143_V3138M] .
0.529

Would you mind telling me what phosphorylation enrichment value was observed for FSPGSYERETF [NF1_Y2192] ?
0.427

====

# TESTED TARGET: Fes (UniProt P07332)
# Sequence (P07332 whole entry, looked up): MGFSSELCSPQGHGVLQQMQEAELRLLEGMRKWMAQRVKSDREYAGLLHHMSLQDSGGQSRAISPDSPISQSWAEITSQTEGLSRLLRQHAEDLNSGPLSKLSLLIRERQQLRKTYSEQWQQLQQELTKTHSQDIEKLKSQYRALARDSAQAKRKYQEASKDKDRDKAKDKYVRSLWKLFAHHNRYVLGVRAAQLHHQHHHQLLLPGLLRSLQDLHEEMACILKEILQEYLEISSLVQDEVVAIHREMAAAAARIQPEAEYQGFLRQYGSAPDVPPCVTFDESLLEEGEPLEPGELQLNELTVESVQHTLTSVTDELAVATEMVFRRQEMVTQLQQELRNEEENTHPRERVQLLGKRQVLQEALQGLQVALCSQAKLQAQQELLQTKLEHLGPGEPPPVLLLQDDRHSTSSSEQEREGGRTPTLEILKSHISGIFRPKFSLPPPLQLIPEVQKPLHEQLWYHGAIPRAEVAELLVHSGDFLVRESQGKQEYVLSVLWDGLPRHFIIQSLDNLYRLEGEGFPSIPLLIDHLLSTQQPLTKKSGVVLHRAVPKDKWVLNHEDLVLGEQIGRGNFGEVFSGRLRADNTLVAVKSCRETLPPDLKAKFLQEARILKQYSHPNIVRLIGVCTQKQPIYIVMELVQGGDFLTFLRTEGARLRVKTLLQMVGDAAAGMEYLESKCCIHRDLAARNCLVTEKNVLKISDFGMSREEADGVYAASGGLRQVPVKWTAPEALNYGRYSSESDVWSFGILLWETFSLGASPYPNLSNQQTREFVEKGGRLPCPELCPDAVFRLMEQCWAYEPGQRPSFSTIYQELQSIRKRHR
# METHOD NOTES: phosphorylation enrichment, bacterial display (enrichment ratio); higher = better substrate or ligand; peptides without Tyr show the background
Outcome: condition met for phosphorylation enrichment of at least 0.9; condition not met for anything lower.

Could you verify whether the entry QEGPEYWDGET [HLA-A_Y83_Q86G] shows phosphorylation enrichment of no less than 0.9?
condition met

Determine whether measured phosphorylation enrichment meets or exceeds 0.9 for LLNAIYLSAKR [SERPING1_Y294_W299R]
condition met

Record YNDSTYNQQLI [ZPLD1_Y198] ; criterion: phosphorylation enrichment no lower than 0.9. Met?
condition not met

Check if phosphorylation enrichment >= 0.9 (inclusive). Item: NNHGNYIVHLG [ETFDH_Y172_R175H]
condition not met

Kindly determine if phosphorylation enrichment recorded for ASTDYYKRGDF [PDHA1_Y243] is above or exactly 0.9.
condition not met

Could you tell me if the measured phosphorylation enrichment of LYDPDFMKVIL [CYP4A22_Y104_Y104F] reaches 0.9 or more?
condition met

Tell me whether phosphorylation enrichment is at least 0.9 here: CTTNHYNFMCN [TP53_Y234_I232N_YF]
condition not met

Is phosphorylation enrichment for SVVVHYEPPEV [TP53_Y220_P219H] at or above 0.9?
condition met

Could you verify whether the entry YADPYYDYEIE [ZC3H18_Y372] shows phosphorylation enrichment of no less than 0.9?
condition met

Decide: is the reported value of phosphorylation enrichment for ETKKQYDSFTY [TMED3_Y85] equal to or greater than 0.9?
condition not met

Kindly determine if phosphorylation enrichment recorded for YTFTSYYMHWV [IGHV1-46_Y51] is above or exactly 0.9.
condition met

Dear colleague, could you confirm whether MSIWPYLQKID [MFSD8_Y63] has phosphorylation enrichment at or above 0.9?
condition not met

Given the entry DAAEDYAEGVR [DHODH_Y194] , answer whether its phosphorylation enrichment meets or surpasses 0.9.
condition met

Reported phosphorylation enrichment reaches at least 0.9 for IRTDAYVQAMT [RPE65_Y89_R91Q] ?
condition not met

Decide: phosphorylation enrichment of PTTKTYLPHFD [HBA1_Y43_F44L] >= 0.9?
condition not met

Does the sequence LTDTVYSSSSA [OR4C12_Y71_I67T] have recorded phosphorylation enrichment that is 0.9 or more?
condition met

Is reported phosphorylation enrichment greater than or equal to 0.9 here: SEASFYKSLNL [NGEF_Y289_YF]
condition met

Has PDSVDYPKKGF [CTSK_Y121_R122P_YF] a recorded phosphorylation enrichment greater than or equal to 0.9?
condition met

Textbook exercise: given the entry DTCPPYVLSQV [GJB4_Y237_G242V] , state whether its phosphorylation enrichment is greater than or equal to 0.9.
condition met

Does the sequence DTCPPYVLSQG [GJB4_Y237] have recorded phosphorylation enrichment that is 0.9 or more?
condition met

Can NDKLRYEVSSP [CDH13_Y66] be said to have phosphorylation enrichment at or above 0.9?
condition met

API: above_or_equal(metric=phosphorylation enrichment, cutoff=0.9) for item LGQRIYQYIQS [DYRK1B_Y271]
condition met

hey, is phosphorylation enrichment for this one >= 0.9? NDFGNYSNQSS [HNRNPA1_Y318_N319S]
condition not met

Check the entry HILQLYRCREE [ALPK3_Y342_T338I] : does phosphorylation enrichment equal or exceed 0.9?
condition met

For this sequence, is measured phosphorylation enrichment 0.9 or higher? `TKGNEYVFRVA`
condition not met

Is the recorded value of phosphorylation enrichment equal to or greater than 0.9 for this sequence? LNTFHHAGVSA [POLR2A_Y1109_Y1109H]
condition met

Tell me whether phosphorylation enrichment is at least 0.9 here: CEHFSYFGMKA [SLC15A2_Y60_R57H_YF]
condition not met

Hi team, for VVSMNYRVGAL [BCHE_Y174] , is the recorded phosphorylation enrichment at or above 0.9?
condition not met

Kindly determine if phosphorylation enrichment recorded for FEAMEYLESKQ [BTK_Y511_C506Y_YF] is above or exactly 0.9.
condition met

====

# System: Fer (mouse)
# METHOD NOTES: phosphorylation enrichment, bacterial display (enrichment ratio); higher = better substrate or ligand; peptides without Tyr show the background
Would you mind telling me the reported phosphorylation enrichment of each entry?
Give only the figure.

Requested read-out: phosphorylation enrichment. Entry: VRVQLYDPDYM [CYP4A22_Y100]
0.599

Need phosphorylation enrichment, item RGFDTYFGFLL [ARSB_Y165_YF]
4.06

Name the recorded phosphorylation enrichment for GQRDLYSGLNQ [CD3E_Y199] .
4.76

Return reported phosphorylation enrichment; argument: QLDQHYLLVPE [DDX49_Y223_R222H]
0.643

Bench note: what phosphorylation enrichment did EKLQKYFRKNP [EHHADH_Y682_Q685K_YF] show?
0.514

Please report the recorded phosphorylation enrichment for IRTDAYVQAMT [RPE65_Y89_R91Q] .
0.41

I have this sequence here, ETKKQYDSFTY [TMED3_Y85] , and I need its recorded phosphorylation enrichment.
0.542

What phosphorylation enrichment value was documented for this sequence, SVTGTYSPALN [TP53_Y126_C124G] ?
0.434

State the recorded phosphorylation enrichment for this entry: DSGKLYALDGL [INO80_Y1104_V1108G]
0.719

Would you kindly share the measured phosphorylation enrichment for TNEFEYDELIV [TGM1_Y136_D132N_YF] ?
0.709

I would be grateful if you could share the reported phosphorylation enrichment for VGIMLYGVDSR [PKD1_Y3143] .
0.634

// lookup phosphorylation enrichment for RELGEYALAEY [ALDH1A3_Y492]
0.74

Looking for the measured phosphorylation enrichment of ACEVLYNIAFM [NCF2_Y125] , can you help?
5.68

Given the entry VRRVGYVSGWG [HP_Y280_G276R] , report its measured phosphorylation enrichment.
0.469

====

# Tested on: c-Src
# METHOD NOTES: phosphorylation enrichment, bacterial display (enrichment ratio); higher = better substrate or ligand; peptides without Tyr show the background
Outcome label depends on phosphorylation enrichment relative to 0.5: at/above gives Yes, below gives No.

Check the entry YAANYYKLLGN [ROR2_Y646_D644N] : does phosphorylation enrichment equal or exceed 0.5?
No

Check this sequence for phosphorylation enrichment at or above 0.5: DDEENYENVPR [FCRL3_Y722]
No

Hi team, for WQQQSYLDFGI [CTNNB1_Y30_S33F] , is the recorded phosphorylation enrichment at or above 0.5?
Yes

Hello, I need to know if LKGIRYLTSGL [PIGA_Y82_R77L] has measured phosphorylation enrichment not below 0.5. Thanks!
Yes

Answer whether phosphorylation enrichment of NFATLYLKIYH [PDE6B_Y219] is greater than or equal to 0.5.
No

Quick check: does SQSAKYDMAED [TTC21B_Y1213_I1208S] have phosphorylation enrichment greater than or equal to 0.5?
Yes

Confirm if phosphorylation enrichment reported for the sequence HESEIYCKVCF [CSRP3_Y57_YF] is 0.5 or above.
Yes

I'd appreciate it if you could say whether TDKLFYIFTPG [SLC27A4_Y243_S247P_YF] has phosphorylation enrichment at least equal to 0.5.
Yes

Please check the record DGKFSYLKVGH [GRM3_Y480_G475D_YF] and state if its phosphorylation enrichment is at or above 0.5.
No

I'd appreciate it if you could say whether SKLTIYDGRPS [MTM1_Y277_A279G] has phosphorylation enrichment at least equal to 0.5.
Yes

For this sequence, is measured phosphorylation enrichment 0.5 or higher? FGLQAYTKVKT [ALDH2_Y502_E504K_YF]
No

Assess whether reported phosphorylation enrichment for LIDGFYRLTAD [JAK2_Y373_YF] sits at 0.5 or higher.
Yes

Item GSLEDYVRETN [GIMAP6_Y176] with phosphorylation enrichment of 0.5 or above?
No

Threshold query (phosphorylation enrichment >= 0.5) on KSPDSYQKILP [ATM_Y1415_L1420P]
No

Determine whether this sequence has phosphorylation enrichment no lower than 0.5: SDVSSYLEGQA [GCG_Y110]
No

Assess whether reported phosphorylation enrichment for FLEEEYVKAVG [TF_Y674_G671E_YF] sits at 0.5 or higher.
Yes

Has GILDVYIFLGP [GAA_Y340] a recorded phosphorylation enrichment greater than or equal to 0.5?
Yes

Say whether IIWDSYTTNKM [GNB4_Y85] shows phosphorylation enrichment of 0.5 or more.
No

Answer whether phosphorylation enrichment of SGGSSYGSGGG [KRT1_Y532] is greater than or equal to 0.5.
No

Could you tell me if the measured phosphorylation enrichment of REEKNYKLKET [BCLAF1_Y459] reaches 0.5 or more?
Yes

Hello, I need to know if PMDTYYDSTRG [DYNC2H1_Y2231] has measured phosphorylation enrichment not below 0.5. Thanks!
Yes

Entry EHFSYYGMKAV [SLC15A2_Y61_R57H] : is its phosphorylation enrichment no less than 0.5?
Yes

Does phosphorylation enrichment meet or surpass 0.5 for TGDVQYRSSVR [FREM2_Y2158] ?
No

// inclusive: phosphorylation enrichment at least 0.5? input: IQTDGDRAPEA [UHMK1_Y197_Y197D]
Yes

Could you please find out whether QPGTDYKIFLF [FN1_Y1970_YF] has phosphorylation enrichment that meets 0.5 or exceeds it?
Yes

phosphorylation enrichment >= 0.5 for KQINDYVEKGT [SERPINA1_Y184] ?
No

Identify whether the reported phosphorylation enrichment of the following sequence is 0.5 or greater: RPSELYFSKIG [SMG1_Y2253_YF]
Yes

Entry GLGGGYGGASG [KRT8_Y54] : is its phosphorylation enrichment no less than 0.5?
No
